- Tested on: Pseudomonas aeruginosa
- measurement description: Antibacterial activity against Pseudomonas aeruginosa MTCC 6642 at 0.4 mg/50 uL incubated overnight by agar-well diffusion analysis
- Assay type: functional
assay endpoint: diameter of the inhibition zone (DIZ) (mm)
Write the number in mm without appending the unit.

Worked set:
query smiles	diameter of the inhibition zone (DIZ) [mm]
Cc1cccc2c1OCCC(Cn1cc(COc3ccc4c(C)cc(=O)oc4c3)nn1)=C2Cl	11
Cc1cccc2c1OCCC(Cn1cc(COc3ccc4ccc(=O)oc4c3)nn1)=C2Cl	14

Task item: Name the value of diameter of the inhibition zone (DIZ) reported for O=c1ccc2ccc(OCc3cn(CC4=C(Cl)c5ccccc5OCC4)nn3)cc2o1 when tested on Pseudomonas aeruginosa.
Reply: 12

Task item: Report value: diameter of the inhibition zone (DIZ), system: Pseudomonas aeruginosa, molecule: Cc1cccc2c1OCCC(Cn1cc(COc3cccc4cccnc34)nn1)=C2Cl
Reply: 18

Task item: Given ClC1=C(Cn2cc(-c3ccccc3)nn2)CCOc2ccccc21 , report its diameter of the inhibition zone (DIZ) on Pseudomonas aeruginosa.
Reply: 13

Task item: Write down measured diameter of the inhibition zone (DIZ) (Pseudomonas aeruginosa) for this molecule. ClC1=C(Cn2cc(COc3cccc4cccnc34)nn2)CCOc2ccc(Cl)cc21
Reply: 10

Task item: Param request: diameter of the inhibition zone (DIZ) | system Pseudomonas aeruginosa | item Cc1ccc2c(c1)C(Cl)=C(Cn1cc(COc3ccc4ccc(=O)oc4c3)nn1)CCO2
Reply: 18

Task item: Give the observed diameter of the inhibition zone (DIZ) of Cc1ccc2c(c1)C(Cl)=C(Cn1cc(COc3ccc4c(C)cc(=O)oc4c3)nn1)CCO2 for Pseudomonas aeruginosa.
Reply: 16

Task item: Please look at Cc1ccc(-c2cn(CC3=C(Cl)c4cc(C)ccc4OCC3)nn2)cc1 and tell me its recorded diameter of the inhibition zone (DIZ) on Pseudomonas aeruginosa.
Reply: 10

Task item: Look up Pseudomonas aeruginosa data: diameter of the inhibition zone (DIZ) of Cc1ccc2c(c1)C(Cl)=C(Cn1cc(-c3ccccc3)nn1)CCO2 , then report it.
Reply: 16

Task item: Print Pseudomonas aeruginosa diameter of the inhibition zone (DIZ) for Cc1cc(=O)oc2cc(OCc3cn(CC4=C(Cl)c5ccccc5OCC4)nn3)ccc12 .
Reply: 12

Task item: Give diameter of the inhibition zone (DIZ) only, for Cc1ccc(-c2cn(CC3=C(Cl)c4ccccc4OCC3)nn2)cc1 , using Pseudomonas aeruginosa data.
Reply: 12

Task item: Please respond with reported diameter of the inhibition zone (DIZ) (system Pseudomonas aeruginosa) for Cc1cccc2c1OCCC(Cn1cc(-c3ccccc3)nn1)=C2Cl .
Reply: 11

Task item: Using Pseudomonas aeruginosa as the test system, report measured diameter of the inhibition zone (DIZ) of Cc1ccc(-c2cn(CC3=C(Cl)c4cc(Cl)ccc4OCC3)nn2)cc1 .
Reply: 12

Task item: Determine reported diameter of the inhibition zone (DIZ) for O=c1ccc2ccc(OCc3cn(CC4=C(Cl)c5cc(Cl)ccc5OCC4)nn3)cc2o1 ; test system: Pseudomonas aeruginosa.
Reply: 11

Task item: Look up Pseudomonas aeruginosa data: diameter of the inhibition zone (DIZ) of Cc1cc(=O)oc2cc(OCc3cn(CC4=C(Cl)c5cc(Cl)ccc5OCC4)nn3)ccc12 , then report it.
Reply: 18

Task item: Report diameter of the inhibition zone (DIZ) on Pseudomonas aeruginosa for this entry: Cc1ccc(-c2cn(CC3=C(Cl)c4cccc(C)c4OCC3)nn2)cc1
Reply: 15

----------
- System: Escherichia coli
- measurement description: Antibacterial activity against Escherichia coli MTCC 1563 at 0.4 mg/50 uL incubated overnight by agar-well diffusion analysis
- Assay type: functional
assay endpoint: diameter of the inhibition zone (DIZ)

Consider the worked cases shown below.
query smiles	diameter of the inhibition zone (DIZ)
Cc1ccc2c(c1)C(Cl)=C(Cn1cc(COc3ccc4ccc(=O)oc4c3)nn1)CCO2	16 mm
Cc1cc(=O)oc2cc(OCc3cn(CC4=C(Cl)c5ccccc5OCC4)nn3)ccc12	11 mm

Task item: Quote diameter of the inhibition zone (DIZ) reported for Cc1ccc(-c2cn(CC3=C(Cl)c4cc(C)ccc4OCC3)nn2)cc1 please.
Reply: 10 mm

----------
- Tested on: Escherichia coli
- measurement description: Antibacterial activity against Escherichia coli MTCC 1563 at 0.4 mg/50 uL incubated overnight by agar-well diffusion analysis
- Format: functional
Calls of active or inactive are those of the source. The calls are words filed in the database; no cut-off is given here.
assay endpoint: diameter of the inhibition zone (DIZ)

Solved cases (8 shown):
query smiles	diameter of the inhibition zone (DIZ)
Cc1cc(=O)oc2cc(OCc3cn(CC4=C(Cl)c5cc(Cl)ccc5OCC4)nn3)ccc12	14 mm
O=c1ccc2ccc(OCc3cn(CC4=C(Cl)c5ccccc5OCC4)nn3)cc2o1	inactive
ClC1=C(Cn2cc(-c3ccccc3)nn2)CCOc2ccccc21	inactive
ClC1=C(Cn2cc(COc3cccc4cccnc34)nn2)CCOc2ccc(Cl)cc21	10 mm
ClC1=C(Cn2cc(COc3cccc4cccnc34)nn2)CCOc2ccccc21	11 mm
Cc1ccc(-c2cn(CC3=C(Cl)c4cccc(C)c4OCC3)nn2)cc1	20 mm
Cc1cccc2c1OCCC(Cn1cc(-c3ccccc3)nn1)=C2Cl	25 mm
Cc1ccc(-c2cn(CC3=C(Cl)c4cc(Cl)ccc4OCC3)nn2)cc1	13 mm

Task item: Please give measured diameter of the inhibition zone (DIZ) of the following entry: O=c1ccc2ccc(OCc3cn(CC4=C(Cl)c5cc(Cl)ccc5OCC4)nn3)cc2o1
Reply: inactive

Task item: Provide diameter of the inhibition zone (DIZ) value for the following compound: Cc1ccc(-c2cn(CC3=C(Cl)c4ccccc4OCC3)nn2)cc1
Reply: 9 mm
